MEASUREMENT_PROTOCOL: Drug level in Sprague-Dawley rat cerebrospinal fluid at 1 mg/kg, ip after 4 hrs
Type: ADME, organism-based
CONDITION_NOTES: read-out: Drug uptake
METRIC: concentration at 4 h

Read the entry N[C@@]1(C(=O)O)C[C@@H](Sc2nc[nH]n2)[C@H]2[C@H](C(=O)O)[C@H]21 and write its reported concentration at 4 h. 9.7 nM

###

SUBJECT_OF_TEST: Metabotropic glutamate receptor 3 (Homo sapiens, UniProt Q14832)
Sequence (Q14832 whole entry): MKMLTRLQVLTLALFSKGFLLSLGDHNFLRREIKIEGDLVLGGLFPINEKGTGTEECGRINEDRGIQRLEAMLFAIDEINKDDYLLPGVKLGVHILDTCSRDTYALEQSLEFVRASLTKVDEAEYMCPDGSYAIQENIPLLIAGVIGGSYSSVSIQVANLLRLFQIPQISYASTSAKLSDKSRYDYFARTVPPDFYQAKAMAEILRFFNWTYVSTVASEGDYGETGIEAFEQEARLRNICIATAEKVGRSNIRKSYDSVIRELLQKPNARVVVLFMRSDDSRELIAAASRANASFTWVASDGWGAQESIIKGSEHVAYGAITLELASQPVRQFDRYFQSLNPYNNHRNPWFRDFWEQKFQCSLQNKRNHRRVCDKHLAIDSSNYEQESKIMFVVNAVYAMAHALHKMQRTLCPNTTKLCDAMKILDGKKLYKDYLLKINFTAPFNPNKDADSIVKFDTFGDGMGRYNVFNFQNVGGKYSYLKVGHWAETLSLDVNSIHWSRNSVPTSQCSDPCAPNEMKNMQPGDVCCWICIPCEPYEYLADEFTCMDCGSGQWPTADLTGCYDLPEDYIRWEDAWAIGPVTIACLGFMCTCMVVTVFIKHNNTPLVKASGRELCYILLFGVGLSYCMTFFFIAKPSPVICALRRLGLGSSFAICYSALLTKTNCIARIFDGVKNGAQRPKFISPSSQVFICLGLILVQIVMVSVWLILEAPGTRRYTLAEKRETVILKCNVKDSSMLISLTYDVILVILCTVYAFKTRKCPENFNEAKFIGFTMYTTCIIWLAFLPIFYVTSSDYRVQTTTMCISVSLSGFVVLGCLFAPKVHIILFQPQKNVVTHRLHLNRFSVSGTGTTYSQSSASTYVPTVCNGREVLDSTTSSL
MEASUREMENT_PROTOCOL: Agonist activity at human recombinant mGlu3 receptor expressed in AV12 cells assessed as stimulation of Ca2+ mobilization after 1.5 hrs by FLIPR assay
Assay type: functional, cell-based
Some compounds, each annotated with its measured EC50.

{"QUERY_SMILES": "Nc1nnc(S[C@H]2C[C@@](N)(C(=O)O)[C@@H]3[C@@H](C(=O)O)[C@@H]32)[nH]1", "EC50": "> 25 µM"}

Read the entry Cc1nnc(S[C@@H]2C[C@@](N)(C(=O)O)[C@@H]3[C@@H](C(=O)O)[C@@H]32)[nH]1 and write its reported EC50. 0.105 µM

Read the entry N[C@@]1(C(=O)O)C[C@@H](Sc2nnc(C(F)F)[nH]2)[C@H]2[C@H](C(=O)O)[C@H]21 and write its reported EC50. > 25 µM

Read the entry N[C@@]1(C(=O)O)C[C@@H](Sc2ccccc2)[C@H]2[C@H](C(=O)O)[C@H]21 and write its reported EC50. > 25 µM

Read the entry N[C@@]1(C(=O)O)C[C@H](Sc2c[nH]nn2)[C@H]2[C@H](C(=O)O)[C@H]21 and write its reported EC50. > 25 µM

###

MEASUREMENT_PROTOCOL: AUC (0 to 24 hrs) in Sprague-Dawley rat at 3 mg/kg, ip
Type: ADME, organism-based
Parameters: time < 24 hr, dose 3 mg/kg, route intraperitoneal
CONDITION_NOTES: in vivo
METRIC: AUC(0-t) at 24 h (µM·h)
Use µM·h as the unit, but write only the number.

Read the entry N[C@@]1(C(=O)O)C[C@@H](Sc2nc[nH]n2)[C@H]2[C@H](C(=O)O)[C@H]21 and write its reported AUC(0-t) at 24 h. 10.8

###

MEASUREMENT_PROTOCOL: Cmax in Sprague-Dawley rat at 1 mg/kg, ip
Assay type: ADME, organism-based
Parameters: dose 1 mg/kg, route intraperitoneal
CONDITION_NOTES: in vivo
METRIC: Cmax (µM)
Use µM as the unit, but write only the number.

Read the entry N[C@@]1(C(=O)O)C[C@@H](Sc2nc[nH]n2)[C@H]2[C@H](C(=O)O)[C@H]21 and write its reported Cmax. 4.92

###

SUBJECT_OF_TEST: Metabotropic glutamate receptor 3 (Homo sapiens)
MEASUREMENT_PROTOCOL: Agonist activity at human recombinant mGlu3 receptor expressed in AV12 cells assessed as inhibition of forskolin-stimulated cAMP production after 1 hr by fluorescence assay
Type: functional, cell-based
METRIC: EC50 (nM)
Use nM as the unit, but write only the number.

As a guide, the following entries are already answered.
{"QUERY_SMILES": "Cc1nnc(S[C@@H]2C[C@@](N)(C(=O)O)[C@@H]3[C@@H](C(=O)O)[C@@H]32)[nH]1", "VALUE": 103}
{"QUERY_SMILES": "Cc1nnc(S[C@H]2C[C@@](N)(C(=O)O)[C@@H]3[C@@H](C(=O)O)[C@@H]32)[nH]1", "VALUE": 96.6}
{"QUERY_SMILES": "N[C@@]1(C(=O)O)C[C@@H](Sc2nnc(C(F)F)[nH]2)[C@H]2[C@H](C(=O)O)[C@H]21", "VALUE": 77.7}
{"QUERY_SMILES": "Nc1nnc(S[C@H]2C[C@@](N)(C(=O)O)[C@@H]3[C@@H](C(=O)O)[C@@H]32)[nH]1", "VALUE": 112}

Now for a further compound.
Read the entry CC(C)c1nc(S[C@H]2C[C@@](N)(C(=O)O)[C@@H]3[C@@H](C(=O)O)[C@@H]32)n[nH]1 and write its reported EC50. 77.9

###

SUBJECT_OF_TEST: Metabotropic glutamate receptor 3 (Homo sapiens, UniProt Q14832)
MEASUREMENT_PROTOCOL: Displacement of [3H]-459477 from human recombinant mGlu3 receptor expressed in AV12 cells after 90 mins by liquid scintillation counting
Type: cell-based
Some molecules, each annotated with its measured pKi.
FYI, pKi means -log10 of a concentration in mol per litre.

As a guide, the following entries are already answered.
{"QUERY_SMILES": "N[C@@]1(C(=O)O)C[C@H](Sc2nnc[nH]2)[C@H]2[C@H](C(=O)O)[C@H]21", "METRIC": "pKi", "VALUE": 6.90}
{"QUERY_SMILES": "N[C@@]1(C(=O)O)C[C@H](Sc2ccccc2)[C@H]2[C@H](C(=O)O)[C@H]21", "METRIC": "pKi", "VALUE": 6.57}
{"QUERY_SMILES": "N[C@@]1(C(=O)O)C[C@H](Sc2n[nH]c(C(F)(F)F)n2)[C@H]2[C@H](C(=O)O)[C@H]21", "METRIC": "pKi", "VALUE": 7.37}
{"QUERY_SMILES": "N[C@@]1(C(=O)O)C[C@@H](Sc2c[nH]nn2)[C@H]2[C@H](C(=O)O)[C@H]21", "METRIC": "pKi", "VALUE": 6.59}

Read the entry N[C@@]1(C(=O)O)C[C@@H](Sc2nnc(C(F)(F)F)[nH]2)[C@H]2[C@H](C(=O)O)[C@H]21 and write its reported pKi. 7.25

Read the entry CC(C)c1nc(S[C@H]2C[C@@](N)(C(=O)O)[C@@H]3[C@@H](C(=O)O)[C@@H]32)n[nH]1 and write its reported pKi. 7.08

###

Some compounds, each annotated with its measured Ki.
SUBJECT_OF_TEST: UniProt:Q14832
MEASUREMENT_PROTOCOL: Displacement of [3H]-459477 from human recombinant mGlu3 receptor expressed in AV12 cells after 90 mins by liquid scintillation counting

{"QUERY_SMILES": "N[C@@]1(C(=O)O)C[C@@H](Sc2nnc(C(F)F)[nH]2)[C@H]2[C@H](C(=O)O)[C@H]21", "Ki": "63.2 nM"}
{"QUERY_SMILES": "Cc1nnc(S[C@H]2C[C@@](N)(C(=O)O)[C@@H]3[C@@H](C(=O)O)[C@@H]32)[nH]1", "Ki": "79 nM"}
{"QUERY_SMILES": "Cc1nnc(S[C@@H]2C[C@@](N)(C(=O)O)[C@@H]3[C@@H](C(=O)O)[C@@H]32)[nH]1", "Ki": "62.4 nM"}

Now for a further compound.
Read the entry N[C@@]1(C(=O)O)C[C@H](Sc2c[nH]nn2)[C@H]2[C@H](C(=O)O)[C@H]21 and write its reported Ki. 65.1 nM
